Taken from the NIST ThermoML archive (doi:10.1016/j.jct.2015.02.024).

# methodSummary: activity coefficient (dimensionless); of the first substance listed, at infinite dilution; xn = mol fraction of the nth substance listed
# measurementParameters: 338.15 K; 101 kPa; Liquid; Chromatography; x1 = 0
experimentalEndpoint: activity coefficient

- CC#N [acetonitrile] + C[N+]1(CCCO)CCOCC1.O=S(=O)([N-]S(=O)(=O)C(F)(F)F)C(F)(F)F: 0.513
- C1CCCC1 [cyclopentane] + C[N+]1(CCCO)CCOCC1.O=S(=O)([N-]S(=O)(=O)C(F)(F)F)C(F)(F)F: 30.6
- CO [methanol] + C[N+]1(CCCO)CCOCC1.O=S(=O)([N-]S(=O)(=O)C(F)(F)F)C(F)(F)F: 0.915
- Cc1ccccc1 [toluene] + C[N+]1(CCCO)CCOCC1.O=S(=O)([N-]S(=O)(=O)C(F)(F)F)C(F)(F)F: 4.11
- C=C(C)c1ccccc1 [(1-methylethenyl)benzene] + C[N+]1(CCCO)CCOCC1.O=S(=O)([N-]S(=O)(=O)C(F)(F)F)C(F)(F)F: 6.28
- CC(C)O [propan-2-ol] + C[N+]1(CCCO)CCOCC1.O=S(=O)([N-]S(=O)(=O)C(F)(F)F)C(F)(F)F: 1.74
- COC(C)=O [methyl ethanoate] + C[N+]1(CCCO)CCOCC1.O=S(=O)([N-]S(=O)(=O)C(F)(F)F)C(F)(F)F: 1.02
- CCCC=O [butanal] + C[N+]1(CCCO)CCOCC1.O=S(=O)([N-]S(=O)(=O)C(F)(F)F)C(F)(F)F: 1.43
- CC(C)=O [acetone] + C[N+]1(CCCO)CCOCC1.O=S(=O)([N-]S(=O)(=O)C(F)(F)F)C(F)(F)F: 0.543
- CCc1ccccc1 [ethylbenzene] + C[N+]1(CCCO)CCOCC1.O=S(=O)([N-]S(=O)(=O)C(F)(F)F)C(F)(F)F: 7.22
- C#CCCCC [1-hexyne] + C[N+]1(CCCO)CCOCC1.O=S(=O)([N-]S(=O)(=O)C(F)(F)F)C(F)(F)F: 11.6
- C1CCCCCC1 [cycloheptane] + C[N+]1(CCCO)CCOCC1.O=S(=O)([N-]S(=O)(=O)C(F)(F)F)C(F)(F)F: 62.6
- C1CCOC1 [tetrahydrofuran] + C[N+]1(CCCO)CCOCC1.O=S(=O)([N-]S(=O)(=O)C(F)(F)F)C(F)(F)F: 1.08
- c1ccncc1 [pyridine] + C[N+]1(CCCO)CCOCC1.O=S(=O)([N-]S(=O)(=O)C(F)(F)F)C(F)(F)F: 0.501
- CCCCCCCCC [nonane] + C[N+]1(CCCO)CCOCC1.O=S(=O)([N-]S(=O)(=O)C(F)(F)F)C(F)(F)F: 332
